molecular target: GABAA receptors, benzodiazepine site (washed rat brain membranes); test: [3H]Flunitrazepam binding and displacement; conditions: read-out: [3H]Flunitrazepam Binding, displacement, 1 nM [3H]flunitrazepam, 10 µM GABA
ATTRIBUTE MEASURED: Ki

Task: State Ki on GABAA receptors, benzodiazepine site (washed rat brain membranes). Entry: O=C(O)c1cc(NC(=O)N(c2ccccc2)c2ccccc2)c2c(Cl)cc(Cl)cc2n1
Result: > 10 µM

----------
biological target: GABAA receptors (washed rat brain membranes); test: Displacement of [3H]muscimol binding (PDSP); conditions: 5 nM [3H]muscimol
ATTRIBUTE MEASURED: Ki (µM)
Answers are plain numbers, in µM.

Task: State its Ki: O=C(O)c1cc(NC(=O)N(c2ccccc2)c2ccccc2)c2c(Cl)cc(Cl)cc2n1 [DCUKA]
Result: 6.6
